- Experiment description: Nephrotoxicity against HEK293 cells assessed as cell viability at 12.5 uM incubated for 24 hrs by MTT assay relative to control
- Type: toxicity, cell-based
- Applied conditions: human, read-out: Activity
Residues, ends and D or L forms follow the SMILES beside them.
Observed property: viability at 24 h, 12.5 µM (%)
The answer is to be given in %; state only the numeric part.

Measured viability at 24 h, 12.5 µM of CC(C)C[C@@H]1NC(=O)[C@H](CCCN)NC(=O)[C@H](C(C)C)NC(=O)[C@@H]2CCCN2C(=O)[C@@H](Cc2ccccc2)NC(=O)[C@H](CC(C)C)NC(=O)[C@H](CCCN)NC(=O)[C@H](C(C)C)NC(=O)[C@@H]2CCCN2C(=O)[C@@H](Cc2ccccc2)NC1=O [GRAMICIDIN S] (HELM PEPTIDE1{L.[dF].P.V.[Orn].L.[dF].P.V.[Orn]}$PEPTIDE1,PEPTIDE1,1:R1-10:R2$$$V2.0) : 25
